Please go through the items and note down their CHRF288-11 %inh.
Tested on: CHRF288-11
Set-up: species or system AML cell lines (8); Primary HTS, single concentration about 10 uM, Cell Titer Glo viability; log10 luminescence, per cent inhibition relative to cycloheximide control
Conditions: 72 h, relative to cycloheximide control, log10 luminescence; inhibitor
Counter-ions that a name gives are not always drawn.
Field: numeric (%). Do not append units.

Record request: CHRF288-11 %inh value, item COc1cccc(-n2ncc3c(N/N=C/c4cccc(F)c4)ncnc32)c1 [SJ000573217-1, U18028/186/1] -0.7991

State the recorded CHRF288-11 %inh for this entry: Cc1ccc(Nc2nccc(N(C)c3ccc4c(C)n(C)nc4c3)n2)cc1S(N)(=O)=O [SJ000556680-2] 59.62

// query CHRF288-11 %inh value for entry CCC[C@@H]1CC2=CC(=O)CC[C@]2(C)[C@H]2CC[C@@]3(C)[C@@H](CC[C@@]3(O)CCC(=O)O)[C@H]12 [SJ000546509-1, RU 28318] 5.992

GET /values?readout=CHRF288-11 %inh&item= CCn1nc(C(=O)O)c(=O)c2cc3c(cc21)OCO3 [SJ000285711-7, CINOXACIN] 0.6656

// query CHRF288-11 %inh value for entry COC(=O)/C=C/c1cccc(N(Cc2ccc(-c3ccc(N(C)C)cc3)cc2)C(=O)C2CCCCC2)c1 [SJ000546510-1, FEXARAMINE] -3.158

Any idea what CHRF288-11 %inh was measured for Nc1ccc(C#Cc2cncnc2Nc2ccc(OCc3cccc(F)c3)c(Cl)c2)cc1 [SJ000573041-1, U17810/18/1] ? 2.448

GET /values?readout=CHRF288-11 %inh&item= NCc1ccc(-n2c(-c3nonc3N)nc3cnccc32)cc1 [SJ000573066-1, CP100101-172A1] 11.55

# query: CHRF288-11 %inh of entry CNC(=O)c1cncc(/C=C/c2c(C)cccc2C)c1 [SJ000573249-1, U12068/55/2] 2.946

CHRF288-11 %inh lookup needed for COc1ccc2cc(-c3c(-c4ccncc4)nc(-c4ccc(S(C)(=O)=O)cc4C)n3C)ccc2c1 [SJ000573196-1, NJ44157-082B1] , thanks. 3.66

Please look up its CHRF288-11 %inh: CS(=O)(=O)CCCn1c(=O)c(Oc2ccc(F)cc2F)cc2cnc(NC3CCOCC3)nc21 [SJ000581074-1] 5.377

Give the measured CHRF288-11 %inh of CCn1c(-c2nonc2N)nc2c(C#CC(C)(C)O)nc(O[C@@H](CN)c3ccccc3)cc21 [SJ000573327-1, MS208738-058A1] . 92

Look up CHRF288-11 %inh: O=C(Nc1n[nH]c2cc(-c3ccc(F)cc3)ccc12)C1CC1 [SJ000573147-1, VB100064-137A1] 23.72

Quick check: CHRF288-11 %inh of Cn1cc(C2=C(c3cn(C)c4ccccc34)C(=O)NC2=O)c2ccccc21 [SJ000580978-1] ? -0.8174

Quick check: CHRF288-11 %inh of Cc1cccc(C)c1NC(=O)C(C)N (stereo not drawn) [SJ000287515-4, TOCAINIDE HYDROCHLORIDE] ? -1.466

Entry COc1cc(F)c(F)cc1C(=O)c1cnc(NC2CCN(S(C)(=O)=O)CC2)nc1N [SJ000581030-1] : reported CHRF288-11 %inh = ? 9.313

----------
Assay: Pharmacokinetics of ruxolitinib, single oral dose, plasma LC-MS/MS
Format: in vivo, mice
Details: mouse, BoyJ, Male, 60 mg kg−1 oral gavage
test.readout: Cmax (µM)
Note: unit µM is implicit; provide only the numeric part.

Find the recorded Cmax belonging to N#CC[C@H](C1CCCC1)n1cc(-c2ncnc3[nH]ccc23)cn1 and report it. 28.6

----------
System: ML-2
Design: species or system AML cell lines (8); Primary HTS, single concentration about 10 uM, Cell Titer Glo viability; log10 luminescence, per cent inhibition relative to cycloheximide control
Conditions: 72 h, relative to cycloheximide control, log10 luminescence, inhibitor, ML-2 %inh, 10 µM
Counter-ions that a name gives are not always drawn.
For each of the compounds below, state its ML-2 %inh.
Form entry: value (%) — number only.

For the compound COCCOC(=O)C1=C(C)NC(C)=C(C(=O)OC(C)C)C1c1cccc([N+](=O)[O-])c1 (stereo not drawn) [SJ000285435-9, NIMODIPINE] , what ML-2 %inh is on record? 2.121

State the recorded ML-2 %inh for this entry: CC(=O)N(O)CCCCCNC(=O)CCC(=O)N(O)CCCCCNC(=O)CCC(=O)N(O)CCCCCN [SJ000285725-4, DEFEROXAMINE MESYLATE] 7.19

Which ML-2 %inh value is on record for CC(C)(C)C(=O)Oc1ccc(S(=O)(=O)Nc2ccccc2C(=O)NCC(=O)O)cc1 [SJ000556638-3, SIVELESTAT SODIUM SALT] ? 0.7785

Return reported ML-2 %inh; argument: C[C@]12CC[C@@H]3c4ccc(O)cc4C[C@@H](CCCCCCCCC[S+]([O-])CCCC(F)(F)C(F)(F)F)[C@H]3[C@@H]1CC[C@@H]2O (single isomer, unassigned) 2.01

Given the compound CN(CCCCCCCCCCN(C)C(=O)Oc1cccc([N+](C)(C)C)c1)C(=O)Oc1cccc([N+](C)(C)C)c1 [SJ000287334-2, DEMECARIUM BROMIDE] , what is its reported ML-2 %inh? 3.342

Field request: ML-2 %inh | item: COc1cc2c(cc1O)CC[C@@H]1[C@@H]2CC[C@]2(C)[C@@H](O)CC[C@@H]12 [SJ000288002-4] 66.58

----------
System: CMK
Parameters: species or system AML cell lines (8); Primary HTS, single concentration about 10 uM, Cell Titer Glo viability; log10 luminescence, per cent inhibition relative to cycloheximide control
Settings: 72 h, relative to cycloheximide control, log10 luminescence, inhibitor, CMK %inh, 10 µM
test.readout: CMK %inh

Tell me reported CMK %inh for NCCCC[C@H](N[C@@H](CCc1ccccc1)C(=O)O)C(=O)N1CCC[C@H]1C(=O)O [SJ000285890-4, LISINOPRIL] , tested with CMK. 2.277%

CMK / CMK %inh / CC[C@H]1OC(=O)[C@H](C)[C@@H](O[C@H]2C[C@@](C)(OC)[C@@H](O)[C@H](C)O2)[C@H](C)[C@@H](O[C@@H]2O[C@H](C)C[C@H](N(C)C)[C@H]2O)[C@](C)(OC)C[C@@H](C)C(=O)[C@H](C)[C@@H](O)[C@]1(C)O [SJ000286061-3, CLARITHROMYCIN] : value? 1.841%

Record lookup: for CMK, what CMK %inh belongs to C[C@H](CS)C(=O)N1CCC[C@H]1C(=O)O [SJ000286908-10, CAPTOPRIL] ? 3.343%

----------
Test system: MLLr primary AML blast samples
Experiment: Ex vivo drug treatment of primary AML blasts on mesenchymal stromal cells
Format: cell-based
Conditions: Homo sapiens; primary blasts on MSC, 96 h, range over patient samples
test.readout: IC50

Look up IC50: C=CC(=O)N1CCC[C@@H](n2nc(-c3ccc(Oc4ccccc4)cc3)c3c(N)ncnc32)C1 [Ibrutinib, reference compound] > 20000 nM

# lookup: IC50 of C/C=C1\NC(=O)[C@H]2CSSCC/C=C/[C@H](CC(=O)N[C@H](C(C)C)C(=O)N2)OC(=O)[C@H](C(C)C)NC1=O [Romidepsin, reference compound] 1.6 to 6 nM

I have this molecule here, Cc1[nH]c2ccccc2c1CCNCc1ccc(/C=C/C(=O)NO)cc1 [Panobinostat, reference compound] , and I need its recorded IC50. 0.9 to 3.3 nM

----------
System: U937
Parameters: species or system AML cell lines (8); Primary HTS, single concentration about 10 uM, Cell Titer Glo viability; log10 luminescence, per cent inhibition relative to cycloheximide control
Conditions: 72 h, relative to cycloheximide control, log10 luminescence; inhibitor
Where a name gives a salt, the structure may show the parent alone.
Please provide measured U937 %inh for the entries that follow.
# output: bare number, implied unit %

So what does the record say about U937 %inh for NCc1ccc(-c2nc(-c3ccc(Cl)c(O)c3)c(-c3ccncc3)[nH]2)cc1 ? -0.0474

May I ask what U937 %inh has been recorded for CCn1c(-c2nonc2N)nc2c(C#CC(C)(C)O)ncc(OCC3CCNCC3)c21 ? 25.28

Record request: U937 %inh value, item COc1cccc(/C=N/Nc2ncnc3c2cnn3-c2cccc(OC)c2)c1 -1.619

Consider the molecule shown here: Nc1nccc(-c2c(-c3ccc(F)cc3)ncn2C2CCC(O)CC2)n1 (centres unmarked) What is its recorded U937 %inh? 5.213

Look at this molecule and give its reported U937 %inh. CN(C)c1cc2c(Nc3ccc4nc(Cc5ccccc5)[nH]c4c3)ncnc2cn1 -0.02909

What measured U937 %inh goes with O=c1ncnc2n([C@H]3O[C@@H](CO)[C@H](O)[C@@H]3O)[nH]cc1-2 (stereo in doubt) [SJ000562682-1, ALLOPURINOL RIBOSIDE] ? 0.8426

Return reported U937 %inh; argument: O=C1OC(=O)C(c2c[nH]c3ccccc23)=C1c1c[nH]c2ccccc12 1.32

State the recorded U937 %inh for this entry: CCc1nn2ncccc2c1-c1ccnc(NC2CC2)n1 0.5788

What U937 %inh value was documented for this molecule, COc1cc(N2CCN(C(C)C)CC2)ccc1Nc1nc(Nc2cccc(F)c2C(=O)O)c2cc[nH]c2n1 ? -3.308

U937 %inh for Cc1cc(-c2ccco2)cc(C)c1/C=C/c1cncc(-c2nn[nH]n2)c1 ? -2.587

Reported U937 %inh, molecule CN(C)CCOc1ccc(-c2cc(-c3ccc4c(c3)CCC4=NO)c(-c3ccncc3)o2)cc1 : ____ 9.989

// lookup U937 %inh for C[C@]12CCC(=O)C=C1CC[C@@H]1[C@@H]2C(=O)C[C@@]2(C)[C@H]1CC[C@]2(O)C(=O)CO -1.735

Can you look up the measured U937 %inh of CC(C)(S)[C@@H](N)C(=O)O for me? -1.029

Entry under review: COc1cc(N2CCN(C(C)C)CC2)ccc1Nc1nc(Nc2ccc(F)cc2C(N)=O)c2cc[nH]c2n1 . Reported U937 %inh? 43.61

Param item = COc1cccc(-n2ncc3c(N/N=C/c4ccncc4)ncnc32)c1 ; retrieve measured U937 %inh. -2.89

Quick one: U937 %inh of CC(C)c1[nH]nc2c1N=C(c1ccccc1Cl)c1cc([N+](=O)[O-])ccc1N2 ? -1.286

Which U937 %inh value is on record for CCn1c(-c2nonc2N)nc2ccccc21 ? -1.491

Look up U937 %inh: Nc1c(C(=O)c2cccc(C(O)CO)c2)cnn1-c1ccc(F)cc1 (centres unmarked) -0.488

Find the recorded U937 %inh belonging to Cn1cc(C2=C(n3ccc4ccccc43)C(=O)NC2=O)c2ccccc21 and report it. -2.193

Param item = O=C(O[C@H]1CN[C@H](C#Cc2cc3ncnc(Nc4ccc5c(cnn5Cc5ccccc5)c4)c3s2)C1)N1CCOCC1 ; retrieve measured U937 %inh. 3.001

// U937 %inh lookup, key: C=CC[N+]1([C@H]2C[C@H]3[C@@H]4CC[C@H]5C[C@H](O)[C@@H](N6CCOCC6)C[C@]5(C)[C@H]4CC[C@]3(C)[C@H]2OC(C)=O)CCCC1 [SJ000556732-1, ROCURONIUM BROMIDE] -2.855

Please give the measured U937 %inh for this molecule: Cc1cccc(Nc2cc(Cl)nc(SCC(=O)O)n2)c1C 0.764

Recorded U937 %inh of Cn1cc(C2=C(c3cn(CCN)c4ccccc34)C(=O)NC2=O)c2ccccc21 , please. -0.6181

What value of U937 %inh has been reported for the following molecule? CC(=O)Nc1cccc(C#Cc2cncnc2Nc2ccc(OCc3cccc(F)c3)c(Cl)c2)c1 4.462

Given the entry COc1cc2ncn(-c3cc(OCc4ccccc4C(F)(F)F)c(C(C)=O)s3)c2cc1OC , report its measured U937 %inh. -1.322

Report U937 %inh for Nc1c(C(=O)c2cccc(CCS(N)(=O)=O)c2)cnn1-c1ccc(F)cc1 please. 0.2995

Using the record for Nc1nccc(-c2c(-c3ccc(F)cc3)ncn2CCCN2CCOCC2)n1 , report its U937 %inh. 3.947

I am curious: what U937 %inh value has been reported for N#Cc1ccc(NCCNCC(=O)N2CCC[C@H]2C#N)nc1 [SJ000772405-1, NVP DPP 728 DIHYDROCHLORIDE] ? -2.969

Entry under review: Nc1nc(-c2ccc3c(c2)C(=Cc2cc(Br)c(O)c(Br)c2)C(=O)N3)cs1 . Reported U937 %inh? -1.497
